assayed_target: Cannabinoid receptor 1 (Homo sapiens, UniProt P21554)
Sequence (P21554 whole entry): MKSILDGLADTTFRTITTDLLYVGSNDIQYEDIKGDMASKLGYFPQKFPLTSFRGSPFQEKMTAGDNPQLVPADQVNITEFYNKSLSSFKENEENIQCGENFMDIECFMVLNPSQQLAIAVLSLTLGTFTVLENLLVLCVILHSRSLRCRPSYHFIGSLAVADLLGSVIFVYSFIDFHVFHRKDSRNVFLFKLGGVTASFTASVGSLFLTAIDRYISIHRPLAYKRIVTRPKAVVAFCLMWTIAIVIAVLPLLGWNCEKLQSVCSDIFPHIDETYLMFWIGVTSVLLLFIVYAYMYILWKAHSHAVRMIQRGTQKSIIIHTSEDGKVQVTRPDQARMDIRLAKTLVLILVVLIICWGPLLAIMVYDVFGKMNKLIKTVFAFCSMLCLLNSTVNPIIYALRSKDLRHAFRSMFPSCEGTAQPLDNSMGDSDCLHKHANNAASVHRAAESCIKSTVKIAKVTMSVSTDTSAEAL
assay_info: Antagonist activity at CB1 receptor transfected in CHO cells expressing apoaequorin as a reporter for G-protein-coupled receptor-mediated calcium signaling by bioluminescence assay
property_label: pIC50
pIC50 is a log-scale quantity: -log10 of the concentration expressed in molar.

Inquiry: Lab request: please report pIC50 under test system Cannabinoid receptor 1 (Homo sapiens, UniProt P21554) for `CC[C@H]1C[C@@H]2C[C@@]3(C(=O)OC)c4[nH]c5ccc(OC)cc5c4[C@H]4O[C@@H]2N([C@@H]4O)[C@@H]13`
Reply text: 6.85

More entries:
Inquiry: Lab request: please report pIC50 under test system Cannabinoid receptor 1 (Homo sapiens, UniProt P21554) for CC=C1CN(C)C2Cc3c([nH]c4ccccc34)C(c3cc4[nH]c5c(c4cc3OC)CCN3CC4CC(CC)C3C5(C(=O)OC)C4)CC1C2C(=O)OC (stereo not drawn)
Reply text: 7.39

Inquiry: Lab request: please report pIC50 under test system Cannabinoid receptor 1 (Homo sapiens, UniProt P21554) for `CC[C@H]1C[C@@H]2C[C@@]3(C(=O)OC)c4[nH]c5ccc(OC)cc5c4[C@@H]4CN([C@@H]13)[C@H]2O4`
Reply text: 6.70
